Test system: Friend Leukemia Virus
Assay: In vivo inhibition of Friend Leukemia Virus splenomegaly, intravenous 1-2 hours post infection (Example 10)
Design: species or system mice
Conditions: Mus musculus, i.v. 1-2 hours post infection, Table IX, read-out: EC50 for FV-induced splenomegaly
Here, each record is paired with measured EC50 data.
Supply the numeric figure in µM, leaving out any unit text.

                                   molecule  test_value
0  O=C1c2ccccc2Cc2ccccc21 [Compound 30, Anthrone]         267

get_value(item= O=C1c2ccccc2C(=C2c3ccccc3C(=O)c3ccccc32)c2ccccc21 [Compound 36, Bianthrone] , readout=EC50) returns 98
